These entries and their values trace back to patent US5362747A.

Biological target: Type I (rat brain) NOS (Rattus norvegicus)
Construct: isolated from rat brain cerebellum cells partially purified on a phosphocellulose column; from tissue; host or cells: rat brain cerebellum, partially purified on phosphocellulose
Sequence (P29476 whole entry): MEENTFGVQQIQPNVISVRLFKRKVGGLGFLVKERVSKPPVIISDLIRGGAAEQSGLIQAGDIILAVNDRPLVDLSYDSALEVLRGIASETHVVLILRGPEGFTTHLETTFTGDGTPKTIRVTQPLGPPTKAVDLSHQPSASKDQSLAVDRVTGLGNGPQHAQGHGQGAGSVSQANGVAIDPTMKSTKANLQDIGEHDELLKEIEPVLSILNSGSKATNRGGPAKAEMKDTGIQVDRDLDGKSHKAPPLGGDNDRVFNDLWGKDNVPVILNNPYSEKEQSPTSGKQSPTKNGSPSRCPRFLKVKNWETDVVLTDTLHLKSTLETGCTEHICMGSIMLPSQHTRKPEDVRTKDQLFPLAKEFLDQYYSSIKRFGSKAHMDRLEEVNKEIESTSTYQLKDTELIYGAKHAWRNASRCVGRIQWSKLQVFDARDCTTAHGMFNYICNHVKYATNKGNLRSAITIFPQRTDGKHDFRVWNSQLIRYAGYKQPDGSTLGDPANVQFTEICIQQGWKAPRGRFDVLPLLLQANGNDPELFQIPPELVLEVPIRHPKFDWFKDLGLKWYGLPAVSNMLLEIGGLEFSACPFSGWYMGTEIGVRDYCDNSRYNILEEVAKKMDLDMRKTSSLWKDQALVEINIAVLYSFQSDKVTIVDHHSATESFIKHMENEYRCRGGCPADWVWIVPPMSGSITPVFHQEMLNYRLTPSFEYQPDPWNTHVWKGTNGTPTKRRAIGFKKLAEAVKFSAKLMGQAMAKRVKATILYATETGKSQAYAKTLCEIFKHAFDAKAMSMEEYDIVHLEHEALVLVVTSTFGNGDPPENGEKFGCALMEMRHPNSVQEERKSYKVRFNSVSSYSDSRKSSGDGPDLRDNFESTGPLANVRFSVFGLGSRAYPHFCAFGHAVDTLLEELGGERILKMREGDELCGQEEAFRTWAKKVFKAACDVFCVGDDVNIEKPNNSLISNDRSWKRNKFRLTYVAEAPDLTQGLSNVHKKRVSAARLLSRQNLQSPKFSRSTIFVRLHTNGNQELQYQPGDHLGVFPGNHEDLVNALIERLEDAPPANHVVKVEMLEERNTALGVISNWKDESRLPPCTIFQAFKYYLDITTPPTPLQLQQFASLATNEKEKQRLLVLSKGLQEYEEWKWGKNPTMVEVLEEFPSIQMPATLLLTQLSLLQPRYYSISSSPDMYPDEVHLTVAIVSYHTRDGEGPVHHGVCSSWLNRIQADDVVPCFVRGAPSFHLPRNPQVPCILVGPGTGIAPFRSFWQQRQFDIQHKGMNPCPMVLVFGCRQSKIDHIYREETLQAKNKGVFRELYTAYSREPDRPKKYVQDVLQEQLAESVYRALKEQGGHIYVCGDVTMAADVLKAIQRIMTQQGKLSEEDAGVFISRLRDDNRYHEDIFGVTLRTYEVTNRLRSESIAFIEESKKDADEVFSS
Assay: [3H]-arginine to [3H]-citrulline conversion, Type I (rat brain) NOS
Type: biochemical
Details: rat brain cerebellum NOS, 25° C.
measured quantity: IC50 (µM)

Cc1ccc([N+](=O)[O-])c(NCCCC(N)CO)c1 (centres unmarked) = 3
Cc1ccc([N+](=O)[O-])c(NCCCC[C@H](N)C(=O)O)c1 = 40

[1] Cc1ccc([N+](=O)[O-])c(NCCC[C@@H](N)C(=O)O)c1
[2] Cc1ccc([N+](=O)[O-])c(NC/C=C/[C@H](N)CO)c1
[in] For the pair 1 and 2 , which member has the lower IC50 number? The response must carry the label of the picked entry.
[out] 2
(2: 3 µM, 1: 70 µM)

----------
Biological target: Type II (macrophage) NOS (Mus musculus)
Construct: cytosolic preparations of NO synthase (type II isoform) were prepared from RAW 264.7 cells; endogenous in cells; cytosolic preparation
Sequence (P29477 whole entry, canonical isoform): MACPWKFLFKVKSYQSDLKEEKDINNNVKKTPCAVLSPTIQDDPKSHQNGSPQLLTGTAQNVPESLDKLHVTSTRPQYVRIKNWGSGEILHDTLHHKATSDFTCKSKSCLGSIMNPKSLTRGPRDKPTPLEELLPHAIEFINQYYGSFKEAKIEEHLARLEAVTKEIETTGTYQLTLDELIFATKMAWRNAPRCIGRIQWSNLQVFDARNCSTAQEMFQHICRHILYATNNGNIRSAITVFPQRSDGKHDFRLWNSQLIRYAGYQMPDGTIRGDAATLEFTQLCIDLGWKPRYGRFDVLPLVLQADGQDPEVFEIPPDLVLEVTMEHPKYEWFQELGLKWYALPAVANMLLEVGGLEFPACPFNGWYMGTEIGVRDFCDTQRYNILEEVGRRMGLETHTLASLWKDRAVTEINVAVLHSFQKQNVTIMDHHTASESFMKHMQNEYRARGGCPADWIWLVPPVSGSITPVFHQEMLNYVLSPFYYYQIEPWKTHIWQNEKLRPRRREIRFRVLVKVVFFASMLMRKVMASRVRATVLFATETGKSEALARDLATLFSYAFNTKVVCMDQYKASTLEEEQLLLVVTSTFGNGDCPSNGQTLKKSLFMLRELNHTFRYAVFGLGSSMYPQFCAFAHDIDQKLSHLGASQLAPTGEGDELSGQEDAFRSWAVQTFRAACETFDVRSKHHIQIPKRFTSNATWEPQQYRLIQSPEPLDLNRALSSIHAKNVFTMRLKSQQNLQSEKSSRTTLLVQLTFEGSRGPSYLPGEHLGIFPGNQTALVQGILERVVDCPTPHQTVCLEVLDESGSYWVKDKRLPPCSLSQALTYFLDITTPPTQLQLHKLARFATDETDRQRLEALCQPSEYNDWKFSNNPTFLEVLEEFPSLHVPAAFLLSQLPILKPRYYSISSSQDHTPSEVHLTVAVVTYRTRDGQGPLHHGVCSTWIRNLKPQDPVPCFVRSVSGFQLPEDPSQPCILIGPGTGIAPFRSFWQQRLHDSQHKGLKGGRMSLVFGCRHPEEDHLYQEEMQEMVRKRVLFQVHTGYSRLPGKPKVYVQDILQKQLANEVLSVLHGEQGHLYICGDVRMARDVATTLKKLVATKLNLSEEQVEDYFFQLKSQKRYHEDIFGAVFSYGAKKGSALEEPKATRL
Assay: [3H]-arginine to [3H]-citrulline conversion, Type II (macrophage) NOS
Details: cytosolic NOS from LPS-induced RAW 264.7 cells, 25° C.
measured quantity: IC50 (µM)

// known answers, use as guide
Cc1ccc([N+](=O)[O-])c(NCCCC(N)CO)c1 (stereo not shown) = 2.5
N#Cc1ccccc1NCCC[C@H](N)C(=O)O = 100
N=C(NCCC[C@H](N)C(=O)O)N[N+](=O)[O-] [NNLA, NNitro-L-arginine, reference compound] = 7

[a] Cc1ccc([N+](=O)[O-])c(NCCC[C@H](N)C(=O)O)c1
[b] Cc1ccc([N+](=O)[O-])c(NCCC[C@@H](N)C(=O)O)c1
[in] For the pair a and b , which member has the lower IC50 number? The response must carry the label of the picked entry.
[out] a
(a: 10 µM, b: 100 µM)

[a] Cc1ccc([N+](=O)[O-])c(SCCC[C@H](N)C(=O)O)c1
[b] COc1ccc([N+](=O)[O-])c(NCCC[C@H](N)C(=O)O)c1
[in] For the pair a and b , which member has the lower IC50 number? The response must carry the label of the picked entry.
[out] a
(a: 9 µM, b: 100 µM)

----------
Target: Type II (macrophage) NOS (Mus musculus)
Construct: cytosolic preparations of NO synthase (type II isoform) were prepared from RAW 264.7 cells; endogenous in cells; cytosolic preparation
Experiment: [3H]-arginine to [3H]-citrulline conversion, Type II (macrophage) NOS
Conditions: cytosolic NOS from LPS-induced RAW 264.7 cells, 25° C.
Source text: The enzyme NO synthase produces EDRF/NO and citrulline from L-arginine (Bredt and Snyder, Proc. Nat'l Acad Sci USA, 1989, 87: 682-5). The enzymatic generation of EDRF/NO is monitored by measuring the conversion of [^3 H]-L-arginine to [^3 H]-L-citrulline. An inhibitor of this specific enzymatic reaction lowers the conversion rate and, thus, the amount of [^3 H]-L-citrulline produced. Likewise, a compound acting as a substrate would compete with L-arginine and thereby lower the conversion rate. […]
measured quantity: IC50

Cc1ccc([N+](=O)[O-])c(NC/C=C/[C@H](N)CO)c1 = 10 µM
Cc1ccc([N+](=O)[O-])c(NCCCC[C@H](N)C(=O)O)c1 = > 100 µM

[in] GET /values?readout=IC50&item= "N[C@@H](CCCNc1c(Cl)cccc1[N+](=O)[O-])C(=O)O"
[out] > 100 µM
